- experimentalProtocol: Bi-directional Caco-2 permeability
- Type: in vitro ADME
- details: human
I'd be grateful if you could share measured Papp A→B for these entries.
Respond with the bare value in ×10⁻⁶ cm/s.

Give a short answer stating reported Papp A→B for CCO[C@@H]1OC(=O)C[C@@H]1NC(=O)[C@@H]1CCCN1C(=O)[C@@H](NC(=O)c1ccc(N)c(Cl)c1)C(C)(C)C [Compound 1, reference compound] .
0.797

Please report Papp A→B for the following compound: `CC(C)(C)[C@H](NC(=O)c1ccc(N)c(Cl)c1)C(=O)N1CCC[C@H]1C(=O)N[C@H](C#N)Cc1nnn[nH]1`
0.13

Annotate the compound `CC(C)(C)[C@H](NC(=O)c1ccc(N)c(Cl)c1)C(=O)N1CCC[C@H]1C(=O)N[C@H](C#N)CC(=O)O` with its measured Papp A→B.
0.144

Supply Papp A→B value. Item: `CCOC(=O)C[C@@H](C#N)NC(=O)[C@@H]1CCCN1C(=O)[C@@H](NC(=O)c1ccc(N)c(Cl)c1)C(C)(C)C`
0.445
